The reported numbers originate from paper PMC12269619.

Target: P3-3
Experiment: BLI
Ends that are not written are not given here.
endpoint name: pKd
FYI, pKd means -log10 of a concentration in mol per litre.

Req: Please report the recorded pKd for NPDPNANPNVDPNAN (also: biotinylated, position not given here) [Biotinylated junctional peptide Pep21 (PfCSP peptide 21)] .
Resp: 7.81
